Target: human AhR (Homo sapiens, UniProt P35869)
Sequence (P35869 11-848): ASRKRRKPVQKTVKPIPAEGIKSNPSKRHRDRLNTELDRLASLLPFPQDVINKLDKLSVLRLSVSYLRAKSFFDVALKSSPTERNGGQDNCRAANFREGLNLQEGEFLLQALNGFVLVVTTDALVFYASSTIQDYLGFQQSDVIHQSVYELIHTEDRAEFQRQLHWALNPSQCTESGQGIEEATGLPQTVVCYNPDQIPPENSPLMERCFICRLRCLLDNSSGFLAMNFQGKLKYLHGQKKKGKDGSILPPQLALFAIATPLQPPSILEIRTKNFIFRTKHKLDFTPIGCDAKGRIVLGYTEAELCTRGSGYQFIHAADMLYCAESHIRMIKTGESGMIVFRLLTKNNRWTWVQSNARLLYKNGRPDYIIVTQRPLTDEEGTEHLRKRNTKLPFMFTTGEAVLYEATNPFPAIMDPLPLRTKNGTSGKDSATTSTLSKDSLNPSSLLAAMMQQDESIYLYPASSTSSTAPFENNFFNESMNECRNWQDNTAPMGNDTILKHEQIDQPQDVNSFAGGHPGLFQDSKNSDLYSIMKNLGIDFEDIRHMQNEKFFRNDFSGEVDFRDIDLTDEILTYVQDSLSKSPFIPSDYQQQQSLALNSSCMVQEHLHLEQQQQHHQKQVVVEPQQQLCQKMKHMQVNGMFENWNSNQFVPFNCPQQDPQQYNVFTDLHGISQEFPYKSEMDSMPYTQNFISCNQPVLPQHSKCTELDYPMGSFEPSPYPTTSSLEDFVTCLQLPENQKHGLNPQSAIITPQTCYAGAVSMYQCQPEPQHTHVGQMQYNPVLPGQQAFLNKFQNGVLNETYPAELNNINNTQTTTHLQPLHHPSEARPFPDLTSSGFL
Experiment: AhR-responsive luciferase reporter gene induction in recombinant human hepatoma
EXPERIMENTAL_READOUT: pEC50
Friendly reminder that pEC50 comes from taking -log10 of the concentration in mol/L.

O=C1c2ccccc2-n2c1nc1ccccc1c2=O [compound 3, Tryptanthrin] yielded pEC50 of 6.77

---

Biological target: human AhR (Homo sapiens, UniProt P35869)
Assay: AhR-responsive luciferase reporter gene induction in recombinant human hepatoma
Details: human HG2L7.5c1 cells, evaluated at 6h
EXPERIMENTAL_READOUT: EC50
Kindly report the value followed by its unit.

EC50 recorded for this compound, `O=C1c2ccc(Br)cc2-n2c1nc1cc(Br)ccc1c2=O` , is 0.5 nM

The values you see were collected from paper PMC7757739.
